Measured Percentage of release efficiency (%) Heart tissue, listed per entry for reference.
- Protocol Details: Homogenate activation efficiency, heart tissue (Examples 28, 37)
- Type: in vitro ADME
- Conditions Used: pH 5.0, 37° C., 2 h; Table 5
Where a SMILES comes first, the peptide text is derived from it. The star is where a group is joined. NEt(2-(20S-CPT-7-yl)ethyl) = CCN(CCc1c2c(nc3ccccc13)-c1cc3c(c(=O)n1C2)COC(=O)[C@]3(O)CC)*; X6 = CCCCCN(CCc1c2c(nc3ccccc13)-c1cc3c(c(=O)n1C2)COC(=O)[C@]3(O)CC)*; X8 = CC[C@@]1(O)C(=O)OCc2c1cc1n(c2=O)Cc2c-1nc1ccccc1c2CCN(C1CCCC1)*; X3 = CC[C@@]1(O)C(=O)OCc2c1cc1n(c2=O)Cc2c-1nc1ccccc1c2CCN(C1CC1)*; Propanoyl(3-maleimido) = O=C1C=CC(=O)N1CCC(=O)*; PEG6 = NCCOCCOCCOCCOCCOCCOCCC(=O)O
Readout: Percentage of release efficiency (%) Heart tissue

{"Compound": "CC[C@@]1(O)C(=O)OCc2c1cc1n(c2=O)Cc2c-1nc1ccccc1c2CCN(C(=O)CNC(=O)[C@H](CC(N)=O)NC(=O)[C@H](C)NC(=O)[C@H](C)NC(=O)CCOCCOCCOCCOCCOCCOCCNC(=O)CCN1C(=O)C=CC1=O)C1CC1 [MI-6PEG-AANG-D6] ({Propanoyl(3-maleimido)-PEG6}-AANG-X3)", "Data Value": 2.5}
{"Compound": "CC[C@@]1(O)C(=O)OCc2c1cc1n(c2=O)Cc2c-1nc1ccccc1c2CCN(C(=O)CNC(=O)[C@H](Cc1ccccc1)NC(=O)CNC(=O)CNC(=O)CCOCCOCCOCCOCCOCCOCCNC(=O)CCN1C(=O)C=CC1=O)C1CCCC1 [MI-6PEG-GGFG-D8] ({Propanoyl(3-maleimido)-PEG6}-GGFG-X8)", "Data Value": 3.1}
{"Compound": "CC[C@@]1(O)C(=O)OCc2c1cc1n(c2=O)Cc2c-1nc1ccccc1c2CCN(C(=O)CNC(=O)[C@H](CC(N)=O)NC(=O)[C@H](C)NC(=O)[C@H](C)NC(=O)CCOCCOCCOCCOCCOCCOCCNC(=O)CCN1C(=O)C=CC1=O)C1CCCC1 [MI-6PEG-AANG-D8] ({Propanoyl(3-maleimido)-PEG6}-AANG-X8)", "Data Value": 3}
{"Compound": "CCCCCN(CCc1c2c(nc3ccccc13)-c1cc3c(c(=O)n1C2)COC(=O)[C@]3(O)CC)C(=O)CNC(=O)[C@H](CC(N)=O)NC(=O)[C@H](C)NC(=O)[C@H](C)NC(=O)CCOCCOCCOCCOCCOCCOCCNC(=O)CCN1C(=O)C=CC1=O [MI-6PEG-AANG-D4] ({Propanoyl(3-maleimido)-PEG6}-AANG-X6)", "Data Value": 2.4}
{"Compound": "CCN(CCc1c2c(nc3ccccc13)-c1cc3c(c(=O)n1C2)COC(=O)[C@]3(O)CC)C(=O)CNC(=O)[C@H](CCCCN)NC(=O)[C@H](C)NC(=O)[C@H](C)NC(=O)CCOCCOCCOCCOCCOCCOCCNC(=O)CCN1C(=O)C=CC1=O [MI-6PEG-AAKG-D2] ({Propanoyl(3-maleimido)-PEG6}-AAKG-{NEt(2-(20S-CPT-7-yl)ethyl)})", "Data Value": 1.5}
{"Compound": "CC[C@@]1(O)C(=O)OCc2c1cc1n(c2=O)Cc2c-1nc1ccccc1c2CCN(C(=O)CNC(=O)[C@H](Cc1ccccc1)NC(=O)CNC(=O)CNC(=O)CCOCCOCCOCCOCCOCCOCCNC(=O)CCN1C(=O)C=CC1=O)C1CC1 [MI-6PEG-GGFG-D6] ({Propanoyl(3-maleimido)-PEG6}-GGFG-X3)", "Data Value": 2.4}
{"Compound": "CC[C@@]1(O)C(=O)OCC2=C1C=C1c3nc4ccccc4c(CCN(C(=O)OCc4ccc(NC(=O)[C@H](CC(N)=O)NC(=O)[C@H](C)NC(=O)[C@H](C)NC(=O)CCOCCOCCOCCOCCOCCOCCNC(=O)CCN5C(=O)C=CC5=O)cc4)C(C)C)c3CN1C2 [MI-6PEG-AAN-PAB-Belotecan]", "Data Value": 2.7}

---

- Protocol Details: Tumor homogenate activation efficiency, small cell lung cancer tissue (Example 28)
- Assay type: in vitro ADME
- Conditions Used: pH 5.0, 37° C., 2 h; Table 5
Where a SMILES comes first, the peptide text is derived from it. The star is where a group is joined. NEt(2-(20S-CPT-7-yl)ethyl) = CCN(CCc1c2c(nc3ccccc13)-c1cc3c(c(=O)n1C2)COC(=O)[C@]3(O)CC)*; X1 = CC[C@@]1(O)C(=O)OCc2c1cc1n(c2=O)Cc2c-1nc1ccccc1c2CCN(C1CCC1)*; X4 = CCCN(CCc1c2c(nc3ccccc13)-c1cc3c(c(=O)n1C2)COC(=O)[C@]3(O)CC)*; Propanoyl(3-maleimido) = O=C1C=CC(=O)N1CCC(=O)*; PEG6 = NCCOCCOCCOCCOCCOCCOCCC(=O)O
Readout: Percentage of release efficiency (%) Small cell lung cancer tissue (NCI-H841)

{"Compound": "CC[C@@]1(O)C(=O)OCc2c1cc1n(c2=O)Cc2c-1nc1ccccc1c2CCN(C(=O)CNC(=O)[C@H](CC(N)=O)NC(=O)[C@H](C)NC(=O)[C@H](C)NC(=O)CCOCCOCCOCCOCCOCCOCCNC(=O)CCN1C(=O)C=CC1=O)C1CCC1 [MI-6PEG-AANG-D7] ({Propanoyl(3-maleimido)-PEG6}-AANG-X1)", "Data Value": 66.1}
{"Compound": "CCCN(CCc1c2c(nc3ccccc13)-c1cc3c(c(=O)n1C2)COC(=O)[C@]3(O)CC)C(=O)CNC(=O)[C@H](CC(N)=O)NC(=O)[C@H](C)NC(=O)[C@H](C)NC(=O)CCOCCOCCOCCOCCOCCOCCNC(=O)CCN1C(=O)C=CC1=O [MI-6PEG-AANG-D3] ({Propanoyl(3-maleimido)-PEG6}-AANG-X4)", "Data Value": 71.2}
{"Compound": "CCN(CCc1c2c(nc3ccccc13)-c1cc3c(c(=O)n1C2)COC(=O)[C@]3(O)CC)C(=O)CNC(=O)[C@H](CC(N)=O)NC(=O)[C@H](C)NC(=O)CNC(=O)CCOCCOCCOCCOCCOCCOCCNC(=O)CCN1C(=O)C=CC1=O [MI-6PEG-GANG-D2] ({Propanoyl(3-maleimido)-PEG6}-GANG-{NEt(2-(20S-CPT-7-yl)ethyl)})", "Data Value": 63.1}

---

- Protocol Details: Tumor homogenate activation efficiency, breast cancer tissue (Examples 28, 37)
- Format: in vitro ADME
- Conditions Used: pH 5.0, 37° C., 2 h; Table 10
Where a SMILES comes first, the peptide text is derived from it. The star is where a group is joined. Belotecan = CC[C@@]1(O)C(=O)OCc2c1cc1n(c2=O)Cc2c-1nc1ccccc1c2CCN(C(C)C)*; X4 = CCCN(CCc1c2c(nc3ccccc13)-c1cc3c(c(=O)n1C2)COC(=O)[C@]3(O)CC)*; X7 = CC[C@@]1(O)C(=O)OCc2c1cc1n(c2=O)Cc2c-1nc1ccccc1c2CCN(C)*; Propanoyl(3-maleimido) = O=C1C=CC(=O)N1CCC(=O)*; PEG6 = NCCOCCOCCOCCOCCOCCOCCC(=O)O
Recorded Percentage of release efficiency (%) Breast cancer tissue (SKBR3), one value per entry.
Readout: Percentage of release efficiency (%) Breast cancer tissue (SKBR3)

{"Molecule": "CC[C@@]1(O)C(=O)OCc2c1cc1n(c2=O)Cc2c-1nc1ccccc1c2CCN(C(=O)[C@H](CC(C)C)NC(=O)[C@H](Cc1ccccc1)NC(=O)CNC(=O)CNC(=O)CCOCCOCCOCCOCCOCCOCCNC(=O)CCN1C(=O)C=CC1=O)C(C)C [MI-6PEG-GGFL-Belotecan] ({Propanoyl(3-maleimido)-PEG6}-GGFL-Belotecan)", "Data Value": 73.2}
{"Molecule": "CC[C@@]1(O)C(=O)OCc2c1cc1n(c2=O)Cc2c-1nc1ccccc1c2CCN(C)C(=O)[C@H](CC(C)C)NC(=O)[C@H](CC(N)=O)NC(=O)[C@H](C)NC(=O)[C@H](C)NC(=O)CCOCCOCCOCCOCCOCCOCCNC(=O)CCN1C(=O)C=CC1=O [MI-6PEG-AANL-D1] ({Propanoyl(3-maleimido)-PEG6}-AANL-X7)", "Data Value": 80}
{"Molecule": "CCCN(CCc1c2c(nc3ccccc13)-c1cc3c(c(=O)n1C2)COC(=O)[C@]3(O)CC)C(=O)[C@H](CC(C)C)NC(=O)[C@H](CC(N)=O)NC(=O)[C@H](C)NC(=O)[C@H](C)NC(=O)CCOCCOCCOCCOCCOCCOCCNC(=O)CCN1C(=O)C=CC1=O [MI-6PEG-AANL-D3] ({Propanoyl(3-maleimido)-PEG6}-AANL-X4)", "Data Value": 67.9}
